MEASURED TARGET: UniProtKB A0ABX6EN84
Sequence (A0ABX6EN84 entry or part of it): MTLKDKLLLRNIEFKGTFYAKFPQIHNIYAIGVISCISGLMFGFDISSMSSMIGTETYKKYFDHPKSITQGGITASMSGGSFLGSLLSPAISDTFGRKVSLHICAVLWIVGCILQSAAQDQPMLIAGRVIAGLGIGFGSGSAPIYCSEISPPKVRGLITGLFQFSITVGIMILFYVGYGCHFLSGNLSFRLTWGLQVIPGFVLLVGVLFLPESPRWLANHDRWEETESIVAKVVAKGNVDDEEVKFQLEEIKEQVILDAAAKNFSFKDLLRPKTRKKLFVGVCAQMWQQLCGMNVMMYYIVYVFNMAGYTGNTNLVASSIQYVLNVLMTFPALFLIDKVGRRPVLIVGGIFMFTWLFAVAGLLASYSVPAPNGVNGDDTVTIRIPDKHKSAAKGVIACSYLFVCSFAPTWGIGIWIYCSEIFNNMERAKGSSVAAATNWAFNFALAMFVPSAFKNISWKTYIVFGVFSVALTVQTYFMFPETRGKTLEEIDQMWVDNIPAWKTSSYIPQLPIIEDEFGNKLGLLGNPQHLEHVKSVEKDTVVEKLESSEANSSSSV
PROCEDURE DETAILS: L-arabinose transport by KmLat1 expressed in S. cerevisiae, 14C-sugar uptake
Type: cell-based
EXPERIMENTAL ENDPOINT: Relative L-arabinose transport (%) KmLat1

COMPOUND	MEASURED TARGET	RESULT
O=C[C@H](O)[C@@H](O)[C@H](O)CO	UniProtKB A0ABX6EN84	25
OC[C@H]1O[C@H](O[C@H]2[C@H](O)[C@@H](O)C(O)O[C@@H]2CO)[C@H](O)[C@@H](O)[C@@H]1O (mixture of isomers)	UniProtKB A0ABX6EN84	38
N#CC(C#N)=NNc1cccc(Cl)c1	UniProtKB A0ABX6EN84	61
C(=NC1CCCCC1)=NC1CCCCC1	UniProtKB A0ABX6EN84	55
